Assay Text: LNP size and polydispersity index by Malvern Zetasizer dynamic light scattering (CA HA modFlu mRNA LNPs)
Type: physicochemical
Measurement Context: LNP of the ionizable lipid:cholesterol:DSPC:ALC-0159 about 46.3:42.7:9.4:1.6, N:P about 6:1, CA HA modFlu mRNA; DLS
Mark no for Size (nm) values under 100 nm, and yes for everything at or above.

Solved cases (10 shown):
| Compound | Class Name |
| --- | --- |
| CCCCCCCCC(CC1CCCCC1)C(=O)OCC(COC(=O)C(CCCCCCCC)CC1CCCCC1)N1CCC2(CCN(CCCCO)CC2)CC1 (stereo not shown) | yes |
| CCCCCCCCC(CCCCCC)C(=O)OCC(COC(=O)C(CCCCCC)CCCCCCCC)N1CCC2(CCN(CCCCO)C2)C1 (stereo not shown) | yes |
| CCCCCCCCC(CCCCCC)C(=O)OCC(COC(=O)C(CCCCCC)CCCCCCCC)N1CCC2(CCN(CCCCCO)C2)CC1 (stereo not shown) | yes |
| CCCCCCCC(CCCCCCC)C(=O)O[C@@H]1CC2(CCN(CCCCCO)CC2)C[C@H]1OC(=O)C(CCCCCCC)CCCCCCC (racemic) | no |
| CCCCCCCC(CCCCCCC)C(=O)O[C@@H]1CC2(CCN(CCO)CC2)C[C@H]1OC(=O)C(CCCCCCC)CCCCCCC (racemic) | no |
| CCCCCCCCC(CCCCCC)C(=O)OCC(COC(=O)C(CCCCCC)CCCCCCCC)N1CCC2(CCN(CCCCCO)CC2)CC1 (stereo not shown) | yes |
| CCCCCCCCC(CCCCCC)C(=O)OCC(COC(=O)C(CCCCCC)CCCCCCCC)N1CCC2(CCN(CCCCCO)C2)C1 (stereo not shown) | yes |
| CCCCCCCC(CCCCCCC)C(=O)O[C@H]1CC2(CCN(CCCCO)CC2)C[C@@H]1OC(=O)C(CCCCCCC)CCCCCCC (single isomer, unassigned) | no |
| CCCCCC/C=C\CCCC(=O)OCC(COC(=O)C(CCCCCC)CCCCCCCC)N1CCC2(CCN(CCCCO)CC2)CC1 (stereo not shown) | no |
| CCCCCCCCC(CCCCC)C(=O)O[C@@H]1CC2(CCN(CCCCO)CC2)C[C@H]1OC(=O)C(CCCCC)CCCCCCCC (mixture of isomers) | yes |

Challenge: API: above_or_equal(metric=Size (nm), cutoff=100 nm) for item CCCCCCCC(CCCCCCC)C(=O)OCCCCCC(=O)O[C@@H]1CC2(CCN(CCCCO)CC2)C[C@H]1OC(=O)CCCCCOC(=O)C(CCCCCCC)CCCCCCC (racemic)
Response given: yes

Challenge: Evaluate CCCCCCCCC(CC1CCCC1)C(=O)OCC(COC(=O)C(CCCCCCCC)CC1CCCC1)N1CCC2(CCN(CCCCO)CC2)CC1 (stereo not shown) : Size (nm) at minimum 100 nm?
Response given: yes

====

# EC50 Hek293F (ng/well) per record follows
Tested on: HEK293F cells
Assay Text: In vitro expression of novel ionizable lipid nanoparticles, high content imaging (CA HA modFlu mRNA)
Type: cell-based
Measurement Context: LNP with CA HA modFlu mRNA
Give the quantity in ng/well, number only.

Challenge: # return recorded EC50 Hek293F (ng/well) for entry CCCCCCCC(CCCCCCC)C(=O)OCC(COC(=O)C(CCCCCCC)CCCCCCC)N1CCC2(CCN(CCCCO)CC2)C1 [Example 14]
Response given: 1.5

Challenge: Identify EC50 Hek293F (ng/well) associated with the compound CCCCCCCCC(CCCCCC)C(=O)OCC(COC(=O)C(CCCCCC)CCCCCCCC)N1CCC2(CCN(CCCNC(=O)C3(C)CC3)CC2)CC1 (centres unmarked) [Example 9]
Response given: 2.6

Challenge: Could you please provide reported EC50 Hek293F (ng/well) for CCCCCCCC(CCCCCCC)C(=O)OCC(COC(=O)C(CCCCCCC)CCCCCCC)N1CC2(CCN(CCCCCO)CC2)C1 [Example 18] ? Thanks!
Response given: 0.57

Challenge: Query EC50 Hek293F (ng/well) for CCCCCCCC(CCCCCCC)C(=O)OCC(COC(=O)C(CCCCCCC)CCCCCCC)N1CCC2(CCN(CCCCCO)C2)CC1 [Example 48]
Response given: 0.76

Challenge: Give the value of EC50 Hek293F (ng/well) reported for the following: CCCCCCCCCC(CCCCCC)C(=O)O[C@@H]1CC2(CCN(CCCCO)CC2)C[C@H]1OC(=O)C(CCCCCC)CCCCCCCCC (mixture of isomers) [Example 67]
Response given: 1.4

Challenge: Let me know recorded EC50 Hek293F (ng/well) for CCCCCCCC(CCCCCCC)C(=O)O[C@@H]1CC2(CCN(CCCO)C2)C[C@H]1OC(=O)C(CCCCCCC)CCCCCCC (racemic) [Example 53] , thanks.
Response given: 2.3

Challenge: Return reported EC50 Hek293F (ng/well). Input compound: CCCCCCCCC(CCCCCC)C(=O)OCC(COC(=O)C(CCCCCC)CCCCCCCC)N1CCC2(CCN(CCCCO)C2)C1 (centres unmarked) [Example 33]
Response given: 0.22

Challenge: For the compound CCCCCCCCC(CCCCCC)C(=O)OCC(COC(=O)C(CCCCCC)CCCCCCCC)N1CCC2(CCN(CCCCCO)CC2)CC1 (centres unmarked) [Example 5] , give its measured EC50 Hek293F (ng/well) value.
Response given: 1.32

Challenge: Given CCCCCCCC(CCCCCCC)C(=O)OCC(COC(=O)C(CCCCCCC)CCCCCCC)N1CCC2(CCN(CCCO)CC2)CC1 [Example 10] , respond with its EC50 Hek293F (ng/well).
Response given: 1.3

Challenge: Retrieve EC50 Hek293F (ng/well) measured for CCCCCCCCC(CCCCCC)C(=O)OCC(COC(=O)C(CCCCCCCC)CC1CCC1)N1CCC2(CCN(CCCCO)CC2)CC1 (centres unmarked) [Example 44] and print it.
Response given: 0.28

Challenge: For the compound CCCCCCCCC(CC1CCCC1)C(=O)OCC(COC(=O)C(CCCCCCCC)CC1CCCC1)N1CCC2(CCN(CCCCO)CC2)CC1 (centres unmarked) [Example 32] , give its reported EC50 Hek293F (ng/well).
Response given: 0.96

Challenge: Provide measured EC50 Hek293F (ng/well) value, entry: CCCCCCCC(CCCCCCC)C(=O)OCC(COC(=O)C(CCCCCCC)CCCCCCC)N1CCC2(CCN(CCCCCO)C2)C1 (centres unmarked) [Example 41]
Response given: 0.20

Challenge: Provide only the value of recorded EC50 Hek293F (ng/well) for CCCCCCCCCC(CCCC)C(=O)OCC(COC(=O)C(CCCCCC)CCCCCCCC)N1CCC2(CCN(CCCCO)CC2)CC1 (centres unmarked) [Example 45]
Response given: 1.1

====

Assay Text: LNP size and polydispersity index by Malvern Zetasizer dynamic light scattering (CA HA modFlu mRNA LNPs)
Type: physicochemical
Measurement Context: LNP of the ionizable lipid:cholesterol:DSPC:ALC-0159 about 46.3:42.7:9.4:1.6, N:P about 6:1, CA HA modFlu mRNA; DLS
Listed below: Size (nm) values for each entry.
Answer format: numeric, nm implied, no suffix.

| Molecule | Readout Units | Size (nm) |
| --- | --- | --- |
| CCCCCCCC(CCCCCCC)C(=O)OCC(COC(=O)C(CCCCCCC)CCCCCCC)N1CC2(CCN(CCCCO)CC2)C1 | nm | 131 |
| CCCCCCCC(CCCCCCC)C(=O)OCC(COC(=O)C(CCCCCCC)CCCCCCC)N1CCC2(CCN(CCCCCO)C2)CC1 | nm | 127 |

Challenge: Fill in Size (nm) for record CCCCCCCCC(CCCCCC)C(=O)O[C@@H]1CC2(CCN(CCCCO)CC2)C[C@H]1OC(=O)C(CCCCCC)CCCCCCCC (mixture of isomers)
Response given: 77

====

System: HEK293F cells
Assay Text: In vitro expression of novel ionizable lipid nanoparticles, high content imaging (CA HA modFlu mRNA)
Assay type: cell-based
Measurement Context: LNP with CA HA modFlu mRNA
Protocol: Plated Hek293T or Hela cells were dosed with lipid nanoparticles in a total volume of 40 μl cell culture media and incubated overnight at 37° C. and 5% CO2. […] Total RNA concentration and encapsulation efficiency was assessed using the RiboGreen RNA quantitation assay. RNA integrity pre and post formulation was monitored by Agilent Fragment Analyzer capillary gel electrophoresis. […]
Value Type: EC50 Hek293F (ng/well)
Give just the number in ng/well; leave the unit off.

| Molecule | EC50 Hek293F (ng/well) |
| --- | --- |
| CCCCCCCC(CCCCCCC)C(=O)OCC(COC(=O)C(CCCCCCC)CCCCCCC)N1CCC2(CC1)CN(CCCCO)C2 | 0.22 |
| CCCCCCCC(CCCCCCC)OC(=O)CCCCCC(=O)O[C@@H]1CC2(CCN(CCCCO)CC2)C[C@H]1OC(=O)CCCCCC(=O)OC(CCCCCCC)CCCCCCC (racemic) | 0.39 |
| CCCCCCCCC(CCCCCC)C(=O)OCC(COC(=O)C(CCCCCC)CCCCCCCC)N1CCC2(CCN(CCCCCO)C2)C1 (stereo not shown) | 0.11 |
| CCCCCCCC(CCCCCCC)C(=O)OCCC(CCOC(=O)C(CCCCCCC)CCCCCCC)N1CCC2(CCN(CCCCO)CC2)CC1 | 5.9 |
| CCCCCCCC(CCCCCCC)C(=O)O[C@@H]1CC2(CCN(CCCCO)CC2)C[C@H]1OC(=O)C(CCCCCCC)CCCCCCC (single isomer, unassigned) [Example 57] | 2.9 |

Challenge: Look up and report measured EC50 Hek293F (ng/well) for this entry: CCCCCCCCCCCCC(CCCCCCC)C(=O)OCC(COC(=O)C(CCCCCCC)CCCCCCCCCCCC)N1CCC2(CCN(CCCCO)CC2)CC1 (stereo not shown)
Response given: 1.7

Challenge: Could you please provide reported EC50 Hek293F (ng/well) for CCCCCCCCCC(=O)OCC(COC(=O)C(CCCCCC)CCCCCCCC)N1CCC2(CCN(CCCCO)CC2)CC1 (stereo not shown) ? Thanks!
Response given: 42.7

Challenge: Consider the molecule CCCCCCCCC(CCCC)C(=O)OCC(COC(=O)C(CCCC)CCCCCCCC)N1CCC2(CCN(CCCCO)CC2)CC1 (stereo not shown) . State its measured EC50 Hek293F (ng/well).
Response given: 35.9

Challenge: Quote EC50 Hek293F (ng/well) reported for `CCCCCCC(CCCC)(CCCC)CC(=O)OCC(COC(=O)CC(CCCC)(CCCC)CCCCCC)N1CCC2(CCN(CCCCO)CC2)CC1` please.
Response given: 4.1

Challenge: // Input: CCCCCCCCC(CCC1CCC1)C(=O)OCC(COC(=O)C(CCCCCCCC)CCC1CCC1)N1CCC2(CCN(CCCCO)CC2)CC1 (stereo not shown) . Output its EC50 Hek293F (ng/well) only.
Response given: 1.9

Challenge: Answer with the recorded EC50 Hek293F (ng/well) of CCCCCCCCC(CCCCCC)C(=O)OCC(COC(=O)C(CCCCCC)CCCCCCCC)N1CCC2(CCN(CCCCCO)C2)CC1 (stereo not shown) only.
Response given: 0.64

Challenge: Respond only with EC50 Hek293F (ng/well) recorded for `CCCCCCCC(CCCCCCC)CCC(=O)OCC(COC(=O)CCC(CCCCCCC)CCCCCCC)N1CCC2(CCN(CCCCO)CC2)CC1`
Response given: 5.6

Challenge: Return EC50 Hek293F (ng/well) for the following molecule: CCCCCCCCC(CCCCCC)C(=O)OCC(COC(=O)C(CCCCCC)CCCCCCCC)N1CC2(CCN(CCCCO)CC2)C1 (stereo not shown)
Response given: 2.1

Data provenance is patent US20250367129A1.
